- Test system: Human B Lymphocyte cell line, SU-DHL-8
- MEASUREMENT_DESCRIPTION: Relative cell viability CCK-8, SU-DHL-8
- Type: cell-based
- EXPERIMENTAL_SETUP: Homo sapiens, SU-DHL-8, 48 h, read-out: Relative cell viability (%), SU-DHL-8, 50 μM; 48 hours; untreated (DMSO) = 100%
MEASURE: viability at 50 µM (%)

COMPOUND	MEASURE	MEASUREMENT
Nc1ncccc1C(=O)NCCCCCCCCCCCCN1CCC(c2ccc([N+](=O)[O-])cc2)CC1 [Compound 44]	viability at 50 µM	1.41
Cc1nnc(C)n1CCCCCCCCCCCCNC(=O)c1cccnc1N [Compound 56]	viability at 50 µM	0
CC(C)CN1CCN(CCCCCCCCCCCCC(=O)Nc2nc(N)c3[nH]cnc3n2)CC1 [Compound 6]	viability at 50 µM	3.94
Nc1ncccc1C(=O)NCCCCCCCCCCN1CCOCC1 [Compound 63]	viability at 50 µM	27.9
COC(=O)CN1CCN(CCCCCCCCCCCCC(=O)Nc2nc(N)c3[nH]cnc3n2)CC1 [Compound 7]	viability at 50 µM	3.17
Nc1ncccc1C(=O)NCCCCCCCCCCCCN1CCOCC1 [Compound 2]	viability at 50 µM	24.7
CN(C)C1CCN(CCCCCCCCCCCCNC(=O)c2cccnc2N)C1 (stereo not shown) [Compound 19]	viability at 50 µM	5.08
Cl.Nc1ncccc1C(=O)NCCCCCCCCCCCF [Compound 71]	viability at 50 µM	0.75
Nc1ccncc1C(=O)NCCCCCCCCCCCCF [Compound 73]	viability at 50 µM	0.91
Nc1ncccc1C(=O)NCCCCCCCCCCCCn1ncc2ccc(Cl)nc21 [Compound 123]	viability at 50 µM	48.8
CN1CCN(C(=O)OC(C)(C)C)CC1CCCCCCCCNC(=O)c1cccnc1N (stereo not shown) [Compound 12]	viability at 50 µM	1.13
Nc1ncccc1C(=O)NCCCCCCCCCCCCN1CCN(Cc2ccc(F)cc2)CC1 [Compound 27]	viability at 50 µM	0.56
O=C(NCCCCCCCCCCCCN1CCN2CCCC2C1)c1cccnc1 (stereo not shown) [Compound 23]	viability at 50 µM	1.97
COc1cc2c(cc1OC)CN(CCCCCCCCCCCCNC(=O)c1cccnc1N)CC2 [Compound 125]	viability at 50 µM	42.7
O=C(NCCCCCCCCCCCCF)c1ncccc1O [Compound 64]	viability at 50 µM	6.33
Nc1ncccc1C(=O)NCCCCCCCCCCCCN1CCCC1 [Compound 20]	viability at 50 µM	3.68
CN(C)CCN1CCN(CCCCCCCCCCCCNC(=O)c2cccnc2N)CC1 [Compound 33]	viability at 50 µM	2.66
CC1CN(C(=O)OC(C)(C)C)C(C)CN1CCCCCCCCCCCCNC(=O)c1cccnc1N (stereo not shown) [Compound 30]	viability at 50 µM	1.06
CN1CCN(C2CCN(CCCCCCCCCCCCNC(=O)c3cccnc3N)CC2)CC1 [Compound 124]	viability at 50 µM	31.7
Nc1ncccc1C(=O)NCCCCCCCCCCCCN1CC(F)C1 [Compound 52]	viability at 50 µM	9.15
CC1C2CCCN2CCN1CCCCCCCCCCCCNC(=O)c1cccnc1N (stereo not shown) [Compound 29]	viability at 50 µM	1.03
Nc1ncccc1C(=O)NCCCCCCCCCCCCN1CCc2ccccc2C1 [Compound 3]	viability at 50 µM	23.5
Nc1ncccc1C(=O)CCCCCCCCCCCCCN1CC2CCC(C1)O2 [Compound 131]	viability at 50 µM	42.5
Nc1ncccc1C(=O)NCCCCCCCCCCCCN1CCSC1 [Compound 31]	viability at 50 µM	0.23
Nc1nc(NC(=O)CCCCCCCCCCCCN2CCC(O)CC2)nc2nc[nH]c12 [Compound 9]	viability at 50 µM	3.14
